Measured CLint scaled of individual entries
# ASSAY COMMENT: Intrinsic clearance in human liver microsomes
# Assay type: ADME, Microsome
# MEASUREMENT CONDITIONS: read-out: CLH
# number only, unit mL/min/kg dropped from output

Reference set (2 entries):
| COMPOUND | UNITS | CLint scaled |
| --- | --- | --- |
| CCNC(=O)c1noc(-c2cc(C(C)C)c(O)cc2O)c1-c1ccc(CN2CCOCC2)cc1 [LUMINESPIB] | mL/min/kg | 39 |
| CC1(C)CC(=O)c2c(C(F)(F)F)nn(-c3ccc(C(N)=O)c(N[C@H]4CC[C@H](O)CC4)c3)c2C1 [SNX-2112] | mL/min/kg | 54 |

Prompt: Read off the recorded CLint scaled for COc1c(C)cnc(Cn2cc(C#CCC(C)(C)O)c3c(Cl)nc(N)nc32)c1C
Response: 119
